Reported protein stability index values for a set of variants
B1: ADAMTS4 (parent)
chain: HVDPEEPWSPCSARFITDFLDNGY

variants of: B1; assay: protein stability index of a GFP-peptide fusion (GPS, HEK-293T) (PSI 1-6); higher = more stable; conditions: c terminus: a fixed tail appended;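 note: lentivirally expressed fusions sorted by FACS into six bins by GFP to DsRed ratio, PSI derived from sequencing read proportions per bin multiplied by bin number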
measured_attribute: protein stability index

• V2E = 3.19
• S9C = 2.08
• A13T = 1.79
• D18E = 1.99
• F15Q = 1.77
• F19S = 2.17
• A13R = 1.87
• W8G = 3.2
• H1D = 2.4
• V2L = 2.23
• T17K = 1.71
• C11M = 1.6
• S12F = 1.86
• F19H = 2.29
• F15K = 2.07
• H1N = 2.37
• P7Y = 2.79
• P7Q = 1.72
• P10C = 1.5
• F15N = 2.04
• C11H = 2.06
• W8H = 3.44
• E6G = 1.92
• T17S = 1.88
• F19N = 2.05
• S12P = 1.4
• W8C = 3.39
• I16V = 1.97
• R14A = 2.05
• P7C = 2.11
• N22E = 2.19
• D21R = 1.87
• L20V = 1.92
• P10A = 1.75
• Y24R = 1.96
• P10W = 2.08
• P4S = 1.9
• V2C = 2.09
• T17A = 1.87
• P7L = 3.65
• H1S = 2.54
• P10F = 1.92
• S9P = 2.32
• D18F = 1.6
• L20C = 1.52
• L20W = 1.59
